- assay_details: yeast display, Sf9 membrane polyspecificity reagent, FACS + sequencing; frameworks hold sequencing errors
observable: polyreactivity (PSR sort gate)

Check out these entries, answers already filled in.
QVQLEESGGGLVQAGGSLRLSCAASGSILTDNAMGWYRQAPGKERELVAANSYSGASTYYADSVKGRFTISRDNAKNTVYLQMNSLKPEDTAVFYCAARYVSATPQLKARVRYYYWGQGTQVTVSS | high polyreactivity
QVQLVESGGGLVQAGGSLRLSCAASGGTFGYYAMGWYRQAPGKERELVAAINRSDGGTYYADSVKGRFTISRDNAKNTVYLQMNSLKPEDTAVYYCNADDFYYDEPYDYWGQGTQVTVSS | low polyreactivity
QVQLVESGGGLVQAGGSLRLSCAASGYIFGIYAMGWYRQAPGKERELVARINWSGGRTYYADSVKGRFTISRDNAKNTVYLQMNSLKTEDTAVYYCAARSSYRKMDYWGQGTQVTVSS | high polyreactivity
QVQLVESAVGLVQAGGSLRLSCAASGRIFYFNAMGWYRQAPGKERELVAAISSSGTTYYADSVKGRFTISRDNAKNTVYLQMNSLKPEDTAVYYCAAGYYGHDPRNRYRYNYWGQGTQVTVSS | high polyreactivity
QVQLVESGGGLVQAGGSLRLSCAASGSIFGLYAMGWYRQAPGKERELVAAITWSSGNTYYADSVKGRFTISRDNAKNTVYLQMYSLKPEDTAVYYCAATSVSISYRYDYWGQGTQVTVSS | high polyreactivity
QVQLVESGGGLVQAGGSLRLSCAASGSTFGDYAMGWYRQAPGKREFVAAISFSGGNTYYADSVKGRFTISRDNAKNTVYLQMNSLKPEDTAVYYCNASSYPWEYYYLYYGYDYWGQGTQVTVSS | low polyreactivity
QVQLVESGGCLFQEGGSLRLSCSASGRIFNTYAMVWYRQAPGKERELVARISSGGTTYYADSVKGRFTISRDNAKNTVYLQMNSLKPEDTAVYFCNVRAVTPTRSRPFRYDYWGQGTQVTVSS | high polyreactivity
QVQLVESGGGLVQAGGSLRLSCAASGIIFLNYAMGWYRQAPGKERELVAAITTSGGNTYYADSVKGRFTISRDNAKNTVYLQMNSLKPEDTAVYYCAATDLYFWYPYWFAFEYDYWGQGTQVTVSS | high polyreactivity

Fill in: polyreactivity (PSR sort gate) of QVQLVESGGGLVQAGGSLRLSCAASGGIFAYYGMGWYRQAPGKERELVAAIWIGGNTYYADSVKGRFTISRDNAKNTVYLQMNSLKPVDTAVYYCATEGFVYSWLWEFEYWGQGTQVTVSS is ___
low polyreactivity

Fill in: polyreactivity (PSR sort gate) of QVQLVESGGGLVQAGGSLRLSFAASGSIFKGNVMGWYRQAPGKERELVAGISRRGTSTYYADSVKGRFTISRDNAKNSVYLQMNSLKPEDSAVYYCAKRYYTYGYDYWGQGTQVTVSS is ___
high polyreactivity

Fill in: polyreactivity (PSR sort gate) of QVQLVESGGGLVQAGGSLRLSCAASGRTFGSYVMGWYRQAPGKERELVATISRRGGTTYYADSVKGRYTISRDNAKNTVYLQMNSLKPEDTAVYYCAAKYFGTRYDYWGQGTQVTVSS is ___
high polyreactivity

====

- assay_details: yeast display, Sf9 membrane polyspecificity reagent, FACS + sequencing; frameworks hold sequencing errors
observable: polyreactivity (PSR sort gate)

Check out these entries, answers already filled in.
QVQLVESCGGLVQAGGSLRLSCAASGIIFWWYTMGWYRQAPGKERELVAAISRGGNTNYADSVKGRFTISRDNAKNTVYLQMNSLKTEDTAFYYCAADRHYRFWQYDYWGQGTQVTVSS | high polyreactivity
QVQLVESGGGLVQAGGSLRLSCAASGRTFWPNVMGWYRQAPGKERELVAALTWGDASTYYADSVKGRFTISRDNAKYTVYLQMNSLKPEDTAVYYCAASDYRRTYDYWGQGTQVTVSS | low polyreactivity
QVQLVESGGGLVQPGGSLRLSCAASGGIFLGNAMGGYRQAPGKERELVAGITWSGGRTYYADSVKGRFTISRDNAKNTVYLQMTSLKPEDTAVYDCNKDTPGTRFYGIYSYDYWGQGTQVTVSS | low polyreactivity
QVQLVESGGGLVQAGGSLRLSCAASGSSFTPNVMGWYRQAPGKERELVAAISQSGGSTFYADSVKGRFTISRDNAKNTVYLQMNSLKPEDTAVYYCATEYYGPVYDLDYDYWGQGTQVTVSS | low polyreactivity

Now, please, on to the next sequence.
Fill in: polyreactivity (PSR sort gate) of QVQLVESGGGLVQAGGSLRLSCAASGFTFKSYAMGWYRQAPGKERELVAAINRSGGSTYYADSVKGRFTISRDNAKNTVYLQMNSLKPEDTAVYYCAAVKPPDYYYWGQGTQVTVSS is ___
high polyreactivity

====

- assay_details: yeast display, Sf9 membrane polyspecificity reagent, FACS + sequencing; frameworks hold sequencing errors
observable: polyreactivity (PSR sort gate)

QVQLVESGGGLVQAGGSLRLSCAASGSIFPSNAMGWYRQAPGKERELVAAISSSGGRTYYADSVKGRFTISRDNAKNTVYLQMNSLKPEDTAVYYCAAKYTVYGVGYYYWGQGTQVTVSS | high polyreactivity
QVQLVESGGGLVQAGGSLRLSCAASGRIFYGYTMGWYRPAPGKERELVAAISRYGGSTYYADSVKGRFTISRDNAKKTVYLQMNSLKPEDTAVYYCNAVYSRGYVIKPYDYWGQGTQVTVSS | high polyreactivity

====

- assay_details: yeast display, Sf9 membrane polyspecificity reagent, FACS + sequencing; frameworks hold sequencing errors
observable: polyreactivity (PSR sort gate)

Check out these entries, answers already filled in.
QVQLVESGGGLVQAGGSLRLSCAASGRIISRNAMGWYRQAPGKERELVAAISGSGSRTFYADSVKGRFTISRDNAKNTVYLQMNSLKPEDTAVYYCAADRSSYSRFYYWGQGTQVTVSS | high polyreactivity
QGQLVESGGGLVQAGGSLRLSCAASGFTFAPNAMAWYRQAPGKERELVAAISSASSTYYADSLKGRFTISRDNAKNTVYLQMNSLKPEDTAVYYCAAREGWGFYYWGQGTQVTVSS | high polyreactivity
QVQLVESGGGLVQAGGSLRLSCAASGSIFRANVMGWYRQAPGKERELVASINSDDNTYYADSVKGRFTISRDNAKNTVYLQMKRLKPEDSAVYYCYSEWGLFYDWTVLHMYLDGYYYWGQGTEVTVSS | low polyreactivity
QDQLVESGGGLVQAGGSLRLSCAASGIIFGYYAMGWDRQAPGKERELVAAISSGGTTSYADSVKGPFTISRDNEKNTVSLQMNSLKPEYTAVYYCAARDGYDGFYYWGQGTQVTVSS | low polyreactivity
QVQLVESGGGLVQAAGSLRLSCAASGSIFRPYAMGWYRQAPGKERELVATITSRGGSTYYADSVKGRFTISRDNAKNTVYLQMNSMKPEDTAVYYCAARYISSYGRTQDYSRYDYWGQGTQVNVSS | high polyreactivity

Fill in: polyreactivity (PSR sort gate) of QVQLVESGGGLVQAGGRLRLICAASASNFAGYDKGWYRQAPGKERELVAAITSGGDTYYADSVKGRFTISRDNAKNTGYLQMNSLKPEDTAVYYCNKDYILARYGGGRDYWGQGTQVTVSS is ___
low polyreactivity

Fill in: polyreactivity (PSR sort gate) of QVQLVESGGGLVQAGGSLRLSCAASGYIFPRYAMGWYRQAPGKERELVAAISYSGGSTYYADSVKGRFTISRDYAKNTVYLQMNSLKPEDTAVYYCNAYFLSQYQSAYRDDYWGQGTQVTVSS is ___
high polyreactivity

Fill in: polyreactivity (PSR sort gate) of QVQIVESCGGLVQAGGSLRLICAASGFIFTHYAMGWYRQAPGKERELVAAISSGGSTYYADSVKGRFTISRDNAKYTVYLQMNSLKPEDTAVYYCAAVWPWRYYATGENYWGQGTQVTVSS is ___
high polyreactivity

Fill in: polyreactivity (PSR sort gate) of QVQLVESGGGLVQAGGSLRLSCAASGSIFDRNAMGWYRQAPGKERELVASISYSGGTTYADSVKGRFTISRDNAKNTVYLQMNSLKPEDTAVYYCNAGGVYPRFTFLEQGYEMDYWGQGTQVTVSS is ___
low polyreactivity

Fill in: polyreactivity (PSR sort gate) of QVQLVESGGGLVQAGGSLRLICAASGSIFGRYAMGWYRQAPGKETELVAAINDDSGRTYYADSVKGRFTISRDNAKNTVYLQMNSLKPEDTAVYYCAADGYVLWYSFDYWGQGTLVTVSS is ___
high polyreactivity

Fill in: polyreactivity (PSR sort gate) of QVQLVESGGGLVQAGGSLRLSCAASGSIFAYNTMGWYRQAPGKEREFVAAISWRGGSTYYADSVKGRFTISRDNAKNTVYLQMTSLKPEDTAVYYCNARYRNTFYTRRYDYWGQGTQVTVSS is ___
high polyreactivity
